TESTED SYSTEM: purified resistance-associated esterase (E4) (Myzus persicae)
Construct: 5 g of aphids (stored at −20° C.) were homogenised in 0.02 M phosphate buffer pH 7.0; from tissue; host or cells: whole Myzus persicae aphids, clone 794JZ; homogenate purified over G-25 and DEAE Sepharose Fast Flow
METHOD SUMMARY: Esterase interference assay (indirect determination of esterase inhibition)
Type: biochemical
ASSAY CONTEXT: second 'TABLE 3' (Example 16); procedure as Example 13; no esterase = 0%, uninhibited E4 = 100%
MEASURED QUANTITY: Esterase protection (%) after pre-incubation with compound
The answer is to be given in %; state only the numeric part.

Study these solved cases before continuing.
COMPOUND: CC#CCOc1cc2c(cc1CCC)OCO2
MEASURED: 0.98

COMPOUND: C#CCOc1ccc2c(c1)OCO2 [Example 1, 5-(propargyloxy)-benzo[1,3]dioxole, reference compound]
MEASURED: 63.90

Answer with Esterase protection (%) after pre-incubation with compound of CC#CCOc1ccc2c(c1)OCO2 [Example 2, 5-(but-2-ynyloxy)-benzo[1.3]dioxole] measured for purified resistance-associated esterase (E4) (Myzus persicae).
10.35

Answer with Esterase protection (%) after pre-incubation with compound of `CC#CCOc1cc(OC)c(OC)cc1CCC` measured for purified resistance-associated esterase (E4) (Myzus persicae).
5.09

Answer with Esterase protection (%) after pre-incubation with compound of `C#CCOc1cc2c(cc1CCC)OCO2` measured for purified resistance-associated esterase (E4) (Myzus persicae).
2.06

Answer with Esterase protection (%) after pre-incubation with compound of `C#CCOc1cc(OC)c(OC)cc1CCC` measured for purified resistance-associated esterase (E4) (Myzus persicae).
15.17

* * *

TESTED SYSTEM: purified resistance-associated esterase (E4) (Myzus persicae, UniProt P35501)
Construct: 5 g of aphids (stored at −20° C.) were homogenised in 0.02 M phosphate buffer pH 7.0; from tissue; host or cells: whole Myzus persicae aphids, clone 794JZ; homogenate purified over G-25 and DEAE Sepharose Fast Flow
Sequence (P35501 24-552): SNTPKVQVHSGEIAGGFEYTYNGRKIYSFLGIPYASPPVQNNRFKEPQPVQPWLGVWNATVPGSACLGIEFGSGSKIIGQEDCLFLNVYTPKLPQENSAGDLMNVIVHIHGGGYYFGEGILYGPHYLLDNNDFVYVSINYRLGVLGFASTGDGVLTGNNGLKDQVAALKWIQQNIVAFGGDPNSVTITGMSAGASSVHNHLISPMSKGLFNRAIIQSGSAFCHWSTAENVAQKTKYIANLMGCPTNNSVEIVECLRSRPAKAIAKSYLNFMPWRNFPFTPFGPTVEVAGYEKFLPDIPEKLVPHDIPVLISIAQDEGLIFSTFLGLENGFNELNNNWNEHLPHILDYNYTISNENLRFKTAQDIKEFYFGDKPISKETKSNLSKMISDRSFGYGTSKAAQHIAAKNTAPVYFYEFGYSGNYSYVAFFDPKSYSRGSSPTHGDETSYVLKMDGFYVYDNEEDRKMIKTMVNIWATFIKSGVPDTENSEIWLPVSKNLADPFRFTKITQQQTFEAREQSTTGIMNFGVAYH
METHOD SUMMARY: Esterase interference assay (indirect determination of esterase inhibition)
Format: biochemical
ASSAY CONTEXT: Table 2 (Example 13); 0.03 mM compound pre-incubated with E4 16 h at 4° C.; no esterase = 0%, uninhibited E4 = 100%
Parameter Esterase protection (%) after pre-incubation with compound: see the listing below.
The answer is to be given in %; state only the numeric part.

COMPOUND: CC#CCOc1cc2c(cc1COCCOCCOCCCC)OCO2 [Example 9]
U: %
MEASURED: 2.96

COMPOUND: CC#CCOc1ccc2c(c1)OCO2 [Example 2, 5-(but-2-ynyloxy)-benzo[1.3]dioxole]
U: %
MEASURED: 10.36

COMPOUND: C#CCOc1ccc2c(c1)OCO2 [Example 1, 5-(propargyloxy)-benzo[1,3]dioxole, reference compound]
U: %
MEASURED: 63.9

COMPOUND: CC#CCOc1cc2c(cc1CCC)CCO2 [Example 11]
U: %
MEASURED: −1.17

COMPOUND: CC#CCOc1cc2c(cc1CCC)OCO2 [Example 3]
U: %
MEASURED: 0.97

Could you now consider this next compound?
Hello, please tell me recorded Esterase protection (%) after pre-incubation with compound for this one: C#CCOc1cc2c(cc1CCC)OCO2 [Example 4]
2.06
